measurement_target: Tyrosine-protein phosphatase non-receptor type 11 (Homo sapiens, UniProt Q06124)
Sequence (Q06124 whole entry): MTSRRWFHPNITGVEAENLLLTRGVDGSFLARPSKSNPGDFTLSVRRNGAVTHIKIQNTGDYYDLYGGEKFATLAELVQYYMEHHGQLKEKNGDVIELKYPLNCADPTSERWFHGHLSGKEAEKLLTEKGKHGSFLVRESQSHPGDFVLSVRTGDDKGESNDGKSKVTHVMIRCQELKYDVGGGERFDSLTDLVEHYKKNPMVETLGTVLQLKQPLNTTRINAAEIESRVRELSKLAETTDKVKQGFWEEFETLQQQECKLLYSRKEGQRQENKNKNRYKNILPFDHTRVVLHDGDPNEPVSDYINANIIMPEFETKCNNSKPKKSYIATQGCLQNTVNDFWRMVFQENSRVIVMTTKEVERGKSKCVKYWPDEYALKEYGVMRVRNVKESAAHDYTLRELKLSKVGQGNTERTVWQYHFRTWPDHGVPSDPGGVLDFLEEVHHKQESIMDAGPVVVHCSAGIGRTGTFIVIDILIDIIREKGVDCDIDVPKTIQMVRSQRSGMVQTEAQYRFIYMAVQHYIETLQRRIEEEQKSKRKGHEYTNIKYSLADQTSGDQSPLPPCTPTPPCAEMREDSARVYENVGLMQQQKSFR
property_measured: IC50

stdin: Would you kindly share the measured IC50 for CCCNC(=O)COc1ccc(-c2oc3cc(O)c(C(=O)O)cc3c2C#Cc2cccc(Cl)c2)cc1 ?
stdout: 560 nM
